Kindly state koff for each of the entries shown.
Biological target: T1, human transferrin receptor (recombinant, for surface plasmon resonance) (human, UniProt P02786 89-760)
T1 construct: also called huTfR; human transferrin receptor-biotinylated
T1 sequence (P02786 89-760 limits assumed): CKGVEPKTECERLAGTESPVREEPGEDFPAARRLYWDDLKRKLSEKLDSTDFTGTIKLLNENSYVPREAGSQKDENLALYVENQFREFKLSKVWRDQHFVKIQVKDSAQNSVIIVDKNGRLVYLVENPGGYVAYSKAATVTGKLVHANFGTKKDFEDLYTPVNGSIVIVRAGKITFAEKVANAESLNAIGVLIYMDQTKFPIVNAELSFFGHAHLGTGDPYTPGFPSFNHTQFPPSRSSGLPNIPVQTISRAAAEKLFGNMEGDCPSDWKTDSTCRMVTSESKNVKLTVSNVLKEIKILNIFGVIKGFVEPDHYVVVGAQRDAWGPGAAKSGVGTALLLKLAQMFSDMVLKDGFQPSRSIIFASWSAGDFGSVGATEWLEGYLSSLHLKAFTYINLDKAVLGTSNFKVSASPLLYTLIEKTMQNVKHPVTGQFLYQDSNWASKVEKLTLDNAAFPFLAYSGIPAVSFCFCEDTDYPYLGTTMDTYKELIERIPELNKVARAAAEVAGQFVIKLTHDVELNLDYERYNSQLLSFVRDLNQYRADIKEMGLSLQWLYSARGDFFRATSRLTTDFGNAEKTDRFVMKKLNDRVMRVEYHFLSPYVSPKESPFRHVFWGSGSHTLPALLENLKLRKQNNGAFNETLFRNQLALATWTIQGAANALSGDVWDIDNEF
Assay: SPR 25C
Write the quantity with the unit trailing the number.

[[record]]
binder = "2/99 VH21/VL8 (antibody, V domains shown) VH: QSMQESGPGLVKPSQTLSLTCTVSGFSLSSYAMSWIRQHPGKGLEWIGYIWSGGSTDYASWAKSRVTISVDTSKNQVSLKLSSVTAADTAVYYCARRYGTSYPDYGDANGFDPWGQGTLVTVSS VL: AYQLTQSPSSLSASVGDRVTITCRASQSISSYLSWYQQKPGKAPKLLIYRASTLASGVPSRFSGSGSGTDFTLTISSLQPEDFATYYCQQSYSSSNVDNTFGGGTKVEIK"
reportedendpoint = "koff"
result = "0.00174 s⁻¹"


Parameters: items (list). Returns: koff for each item.
1. 2/99 VH21/VL4 (antibody, V domains shown) VH: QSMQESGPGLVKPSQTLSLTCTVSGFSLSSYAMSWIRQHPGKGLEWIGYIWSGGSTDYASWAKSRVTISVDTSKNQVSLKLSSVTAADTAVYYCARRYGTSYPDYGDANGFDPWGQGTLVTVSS VL: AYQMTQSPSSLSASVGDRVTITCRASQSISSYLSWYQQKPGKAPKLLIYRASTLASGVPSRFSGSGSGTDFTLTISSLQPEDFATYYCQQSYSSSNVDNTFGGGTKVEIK
2. 2/99 VH19/VL10 (antibody, V domains shown) VH: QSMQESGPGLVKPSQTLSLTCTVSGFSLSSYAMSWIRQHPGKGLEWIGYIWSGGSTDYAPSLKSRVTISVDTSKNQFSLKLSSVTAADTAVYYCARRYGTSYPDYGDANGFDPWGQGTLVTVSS VL: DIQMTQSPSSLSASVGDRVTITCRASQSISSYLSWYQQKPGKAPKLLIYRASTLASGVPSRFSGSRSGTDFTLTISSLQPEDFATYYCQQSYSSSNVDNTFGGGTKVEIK

output:
["0.00146 s⁻¹", "0.001 s⁻¹"]
